From: paper PMC4435632

Assay: Plasma ixazomib pharmacokinetics (LC/MS/MS, noncompartmental)
Type: in vivo
Details: human, in vivo, iv, 2.34 mg/m2
recorded.endpoint: half-life (days)
Kindly answer with a numeric value in days, unit omitted.

Item: CC(C)C[C@H](NC(=O)CNC(=O)c1cc(Cl)ccc1Cl)B(O)O | half-life: 3.78

====

Assay: Plasma ixazomib pharmacokinetics (LC/MS/MS, noncompartmental)
Assay type: in vivo
Conditions: human, in vivo, iv, 2.34 mg/m2, C0 (extrapolated immediate post-bolus plasma concentration)
recorded.endpoint: C0 (ng/mL)
Just the number in ng/mL, nothing appended.

In plain terms, CC(C)C[C@H](NC(=O)CNC(=O)c1cc(Cl)ccc1Cl)B(O)O has a documented C0 of 869

====

Assay: Plasma ixazomib pharmacokinetics (LC/MS/MS, noncompartmental)
Type: in vivo
Conditions: human, in vivo, iv, 0.125 mg/m2, C0 (extrapolated immediate post-bolus plasma concentration)
recorded.endpoint: C0 (ng/mL)
Kindly answer with a numeric value in ng/mL, unit omitted.

Consider CC(C)C[C@H](NC(=O)CNC(=O)c1cc(Cl)ccc1Cl)B(O)O . Its measured C0 is 27.1

====

Experiment: Plasma ixazomib pharmacokinetics (LC/MS/MS, noncompartmental)
Type: in vivo
Conditions: human, in vivo, iv, 1.33 mg/m2, C0 (extrapolated immediate post-bolus plasma concentration)
recorded.endpoint: C0
In your response, the unit should come after the numeric value.

Kindly note the recorded C0 for CC(C)C[C@H](NC(=O)CNC(=O)c1cc(Cl)ccc1Cl)B(O)O [ixazomib] , which is 390 ng/mL

====

Experiment: Plasma ixazomib pharmacokinetics (LC/MS/MS, noncompartmental)
Assay type: in vivo
Conditions: human, in vivo, iv, 0.25 mg/m2, C0 (extrapolated immediate post-bolus plasma concentration)
recorded.endpoint: C0
State the result as a value with its unit after it.

According to the records, this molecule CC(C)C[C@H](NC(=O)CNC(=O)c1cc(Cl)ccc1Cl)B(O)O displays C0 of 69 ng/mL

====

Experiment: Plasma ixazomib pharmacokinetics (LC/MS/MS, noncompartmental)
Type: in vivo
Conditions: human, in vivo, iv, 1 mg/m2
recorded.endpoint: half-life (h)
Answer with a number only, understood to be in h.

Noted for CC(C)C[C@H](NC(=O)CNC(=O)c1cc(Cl)ccc1Cl)B(O)O : its half-life reads 172

====

Experiment: Plasma ixazomib pharmacokinetics (LC/MS/MS, noncompartmental)
Assay type: in vivo
Details: human, in vivo, iv, 1 mg/m2, C0 (extrapolated immediate post-bolus plasma concentration)
recorded.endpoint: C0 (ng/mL)
The answer is to be given in ng/mL; state only the numeric part.

For CC(C)C[C@H](NC(=O)CNC(=O)c1cc(Cl)ccc1Cl)B(O)O the compound record lists C0 as 273
